Reference for the values: paper PMC4766710

# TEST: clinical
# MEASUREMENT_PARAMETERS: human, in vivo, 75 mg
MEASURED_ENDPOINT: AUC(0-inf) (ng·h/mL)
All answers are understood in ng·h/mL, so give the number only.

Query: AUC(0-inf) lookup needed for Cn1cnc2c(F)c(Nc3ccc(Br)cc3Cl)c(C(=O)NOCCO)cc21 , thanks.
Response: 5650

* * *

# TEST: clinical
# MEASUREMENT_PARAMETERS: human, in vivo, 75 mg
MEASURED_ENDPOINT: Tmax (h)
All answers are understood in h, so give the number only.

Query: Tmax lookup needed for Cn1cnc2c(F)c(Nc3ccc(Br)cc3Cl)c(C(=O)NOCCO)cc21 , thanks.
Response: 1.55
